system: Caco-2; assay: cell viability relative to DMSO; higher = less toxic; conditions: 72 h; 100 nM
Measured quantity: cell viability (%)
Express your answer in %, writing the number without its unit.

Consider the compound shown here: OC(c1ccc(-c2ccc(CN3CCN(Cc4ccncc4)CC3)cc2)c(F)c1)(C(F)(F)F)C(F)(F)F What is its recorded cell viability?
101

Can you share its cell viability? I mean this compound: CCOC(=O)C1=C[C@]2(CC)CCCN3CCc4c(n1c1ccccc41)[C@@H]32
91.7

Requested read-out: cell viability. Entry: C=CC(=O)N1CCC[C@@H](n2nc(-c3ccc(Oc4ccccc4)cc3)c3c(N)ncnc32)C1
101

Which cell viability reading was recorded for the compound CO[C@@]1(NC(=O)C2SC(=C(C(N)=O)C(=O)O)S2)C(=O)N2C(C(=O)O)=C(CSc3nnnn3C)CS[C@@H]21 (stereo partly drawn) ?
93.6

Recorded cell viability of CCn1c2ccccc2c2cc(Nc3ccnc(NCCCN4CCOCC4)n3)ccc21 , please.
97.4

Consider the compound O=[N+]([O-])c1cc(Cl)ccc1S(=O)(=O)N1CCN(Cc2ccccc2)CC1 and give its measured cell viability.
96.2

I would be grateful if you could share the reported cell viability for CN1CCN(c2nc(C3=C(c4c[nH]c5ccccc45)C(=O)NC3=O)c3ccccc3n2)CC1 .
99.1

# cell viability lookup, item CCCCCCCCCCCCCCCc1cccc(OCC(=O)NCCO)c1
98.2
